# TARGET_UNDER_TEST: Muscarinic acetylcholine receptor M4 (Homo sapiens, UniProt P08173)
# Sequence (P08173 whole entry): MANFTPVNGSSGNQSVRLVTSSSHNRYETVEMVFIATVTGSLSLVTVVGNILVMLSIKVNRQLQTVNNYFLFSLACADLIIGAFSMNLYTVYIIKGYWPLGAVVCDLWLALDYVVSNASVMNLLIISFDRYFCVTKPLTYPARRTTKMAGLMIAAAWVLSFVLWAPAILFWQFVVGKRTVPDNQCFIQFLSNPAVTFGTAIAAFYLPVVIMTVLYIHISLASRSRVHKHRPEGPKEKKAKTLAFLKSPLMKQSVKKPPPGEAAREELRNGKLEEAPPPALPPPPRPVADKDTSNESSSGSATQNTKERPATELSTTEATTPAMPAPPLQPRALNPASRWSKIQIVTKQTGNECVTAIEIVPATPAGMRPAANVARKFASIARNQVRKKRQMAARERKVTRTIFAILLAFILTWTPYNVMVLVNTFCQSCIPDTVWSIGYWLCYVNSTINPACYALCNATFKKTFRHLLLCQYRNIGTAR
READOUT: Ki

Field request: Ki | item: Cc1nc(N2C[C@@H](C)N(C(=O)OC3CC4(C3)CN(Cc3ccccc3)C4)[C@@H](C)C2)ncc1S(C)(=O)=O
< 100 nM
